Data provenance is patent US9320276B2.

Tested on: Pyrenophora teres
Protocol details: in vivo preventive test on Pyrenophora teres (barley)
Cond: 500 ppm of active ingredient, evaluated 7-9 days after inoculation
Measured Efficacy by item
Metric: Efficacy (%)

INSERT INTO assay_data (molecule_smiles, metric, unit_string, result) VALUES
  ('Cn1nc(C(F)F)c(C(=O)N(Cc2csc3ccccc23)C2CC2)c1F', 'Efficacy', '%', 100),
  ('Cn1nc(C(F)F)c(C(=O)N(Cc2c(Cl)cncc2Cl)C2CC2)c1Cl', 'Efficacy', '%', 95),
  ('CN(Cc1cnn(-c2ccccc2)c1)C(=O)c1c(C(F)F)nn(C)c1F', 'Efficacy', '%', 100);
